viability at 30 µM values, listed per item
# Tested on: Human B Lymphocyte cell line, SU-DHL-8
# Protocol Notes: Relative cell viability CCK-8, SU-DHL-8
# Type: cell-based
# Test Settings: Homo sapiens, SU-DHL-8, 48 h, read-out: Relative cell viability (%), SU-DHL-8, 30 μM; 48 hours; untreated (DMSO) = 100%

Item Nc1ncccc1C(=O)CCCCCCCCCCCCCN1CC2CCC(C1)O2 was tested on Human B Lymphocyte cell line, SU-DHL-8; the reported viability at 30 µM is 42.7%

Value sought: viability at 30 µM, system Human B Lymphocyte cell line, SU-DHL-8, item CN1CCN(C2CCN(CCCCCCCCCCCCNC(=O)c3cccnc3N)CC2)CC1 . Result: 32.1%

viability at 30 µM for Human B Lymphocyte cell line, SU-DHL-8 with input Nc1ncccc1C(=O)NCCCCCCCCCCCCn1ncc2ccc(Cl)nc21 equals 44.6%

***
Tested on Human B Lymphocyte cell line, SU-DHL-8, the item Nc1ncccc1C(=O)NCCCCCCCCCCCCN1CC(F)C1 showed viability at 30 µM equal to 10.1%

Bench note, Human B Lymphocyte cell line, SU-DHL-8: Nc1ncccc1C(=O)NCCCCCCCCCCCCN1CCC(O)CC1 , viability at 30 µM reads 9.4%
